Tested on: Staphylococcus aureus ATCC 29213
procedure.text: microbe, parasite or virus in culture
test.conditions: ATCC 29213
Bridge positions count the residues as written; N and C are the ends. Square brackets hold non-standard residues; d marks the D form. Peptide text beside a SMILES is read from it. dNMeF = CN[C@H](Cc1ccccc1)C(=O)O
observed.property: MIC (µg/mL)
One number for each entry, in µg/mL.

• CC[C@@H](C)[C@@H](NC(=O)[C@@H](CCC(N)=O)NC(=O)[C@H](CCCNC(=N)N)NC(=O)[C@@H](NC(=O)[C@@H](Cc1ccccc1)NC)[C@@H](C)CC)C(=O)N[C@H](C(=O)N[C@@H](CO)C(=O)N[C@H]1C(=O)N[C@@H](C)C(=O)N[C@@H](CC(C)C)C(=O)N[C@@H]([C@@H](C)CC)C(=O)O[C@H]1C)[C@@H](C)CC [Compound 25, Arg3-Leu10-teixobactin] (H-[dNMeF]IR[dQ][dI]IS[dT]ALI; ester 8-C) = 0.25

Per the reported Staphylococcus aureus ATCC 29213 data, CCC(C)[C@@H]1NC(=O)[C@H](C)NC(=O)[C@H](NC(=O)[C@H](CO)NC(=O)[C@@H](NC(=O)[C@H](NC(=O)[C@@H](CCCNC(=N)N)NC(=O)[C@H](CO)NC(=O)[C@@H](NC(=O)[C@@H](Cc2ccccc2)NC)[C@@H](C)CC)[C@H](C)CC)[C@@H](C)CC)[C@H](C)OC(=O)[C@H]([C@@H](C)CC)NC1=O (stereo partly drawn) [Compound 33, D-Arg4-Ile10-teixobactin] has MIC of 0.0625
